# System: HepG2
# measurement description: GSK_TCMDC: Percent inhibition of human HepG2 cell line. Test compounds present at 10uM.
# Format: functional
Quick reference: Inhibition of the listed items.
Only the number, expressed in %, is required.

Worked examples, 4 compounds total:
1. O=C(Nc1cccc(CN2CCCN(Cc3cccnc3)CC2)c1)c1ccc(Cl)c(Cl)c1.O=C(O)C(F)(F)F : 16
2. Cc1ccc2nc(N/C(N)=N/C(=O)NC3CCCCC3)nc(C)c2c1 : 8
3. Cc1ccc(C(=O)Nc2ccc(F)c(F)c2F)cc1S(=O)(=O)N1CCCCC1 : 3
4. CN1CCN(c2ccc(Nc3ncc(Cl)c(Nc4cccnc4C(N)=O)n3)cc2)CC1.Cl : 99

Lab note: next compound to report on.
# input compound: COc1ccc(Cl)cc1S(=O)(=O)Nc1cccc(CCN2CCC(N3CCCCC3)CC2)c1 ; wanted: its Inhibition 33
